assay.context: in benzene, 323.15 K
endpoint.label: solubility (mole fraction)

Asked: Give its solubility (mole fraction) value. Item: O=[N+]([O-])c1cn[nH]c1[N+](=O)[O-]
Given back: 0.00482

====

assay.context: in isopropanol, 318.15 K
endpoint.label: solubility (mole fraction)

Asked: Give its solubility (mole fraction) value. Item: O=[N+]([O-])c1cn[nH]c1[N+](=O)[O-]
Given back: 0.509

====

assay.context: in n-butanol, 333.15 K
endpoint.label: solubility (mole fraction)
When you answer, write just the number.

Asked: Give its solubility (mole fraction) value. Item: O=[N+]([O-])c1cn[nH]c1[N+](=O)[O-]
Given back: 0.586
